# system-name: Albumin (Bos taurus) (UniProt P02769)
# Sequence (P02769 whole entry, looked up): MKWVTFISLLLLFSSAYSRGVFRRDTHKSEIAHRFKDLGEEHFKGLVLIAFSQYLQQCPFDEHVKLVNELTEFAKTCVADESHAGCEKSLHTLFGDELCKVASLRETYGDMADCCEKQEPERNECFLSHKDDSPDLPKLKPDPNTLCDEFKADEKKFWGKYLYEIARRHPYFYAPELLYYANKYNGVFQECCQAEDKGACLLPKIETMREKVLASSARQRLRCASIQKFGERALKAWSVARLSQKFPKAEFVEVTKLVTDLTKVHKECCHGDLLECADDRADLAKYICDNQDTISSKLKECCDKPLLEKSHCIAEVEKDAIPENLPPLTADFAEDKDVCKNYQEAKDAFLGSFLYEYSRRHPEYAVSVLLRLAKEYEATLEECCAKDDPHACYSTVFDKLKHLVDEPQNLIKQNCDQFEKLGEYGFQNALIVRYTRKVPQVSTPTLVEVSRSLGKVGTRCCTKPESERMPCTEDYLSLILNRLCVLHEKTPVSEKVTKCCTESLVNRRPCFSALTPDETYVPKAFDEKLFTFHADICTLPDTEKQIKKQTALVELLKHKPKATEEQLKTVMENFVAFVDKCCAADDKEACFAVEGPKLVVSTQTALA
# assay-overview: bovine serum albumin binders on microarray, profiling panel, artefact control for SMM control protein annotation, biochemical, small-molecule microarray, Alexa647 label, 635/667 nm fluorescence (AID 1118);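 note: score merges 667 nm emission intensity and signal-to-noise per printed compound spot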
# experimental-setup: BSA-A647 binding, fluorescence 635 nm, higher = more signal
Please enter Met where composite z-score is greater than or equal to 0.3, and Not met where it is lower.

See these solved cases before continuing.
CC(C)[Si](C#Cc1ccc(Oc2ccccc2)cc1)(O[Si](C#Cc1ccc(Oc2ccccc2)cc1)(C(C)C)C(C)C)C(C)C	Not met
O=C1C[C@]2(c3ccc([N+](=O)[O-])cc3)C(=O)N(CC(F)(F)F)c3cc(CO)ccc3[C@H]2N1C1CCCCC1	Not met
CC(C)NC(=O)[C@@H]1c2ccccc2C(=O)N(C2Cc3ccccc3C2)[C@H]1c1ccc(CO)cc1	Met
[N-]=[N+]=Nc1ccccc1[C@H]1OC(c2ccc(OCCCO)cc2)=N[C@@]1(CCS(=O)(=O)c1ccccc1)C(N)=O	Met
NC(=O)[C@@H]1[C@H]2C(=O)O[C@H](c3ccccc3)[C@H](c3ccccc3)N2[C@H](c2ccc(O)cc2)[C@@]12C(=O)Nc1ccccc12	Not met

Is it the case that CN1C(=O)C2C=CC(C(O)c3ccccc3)N(N(c3ccccc3)c3ccccc3)C2C1=O (stereo not drawn) has composite z-score reaching or exceeding 0.3?
Not met

Now give it for `CC(C)C(=C=CC[C@@H](O)c1ccc(OCCO)cc1)C[C@@H](O)COCc1ccccc1` too.
Met

// query: `CCOC(=O)C1=C[C@@H](C(C)(C)C)N(S(=O)(=O)c2ccc(C)cc2)[C@H]1c1ccc(F)cc1`
Met

====

# assay-overview: small-molecule binders of probe aLefty1, primary screen, biochemical, small-molecule microarray, 635/667 nm fluorescence (AID 1153);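 note: score merges spot fluorescence with signal-to-noise ratio from the scanned slide images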
# experimental-setup: higher = more signal
Label criterion met for high-side composite z-score (at or above 0.4) and criterion not met for low-side composite z-score (below it).

Determine whether measured composite z-score meets or exceeds 0.4 for `O=C1c2ccccc2[C@](Cc2ccccc2I)(C(=O)NCCN2CCOCC2)[C@H](c2ccc(CO)cc2)N1C1CCCCC1`
criterion not met

Also need COc1ccc(C(O)C2C=CC3C(=O)N(Cc4ccccc4)C(=O)C3N2n2cnnc2)cc1OCc1ccccc1 (configuration not stated) , thanks.
criterion not met

Also check `C=C(/C(=C/C[C@H](OC(C)=O)c1ccc(CO)o1)c1cc(C(=O)OC)ccc1OC)C(C)C`
criterion not met

Entry `C=CCOC(=O)[C@H]1[C@@H]2C(=O)O[C@@H](c3ccccc3)[C@@H](c3ccccc3)N2[C@@H](c2ccc(OCCOC(=O)[C@H]3C[C@H]4C(=O)N[C@@H](CCCCNC(C)=O)C(=O)N4[C@H]3c3ccc(O)cc3)cc2)[C@]12C(=O)Nc1ccc(I)cc12` please
criterion not met

Further, for `CC(C)[Si](C#Cc1ccc(Oc2ccccc2)cc1)(O[Si](C#Cc1ccc(Oc2ccccc2)cc1)(C(C)C)C(C)C)C(C)C` ?
criterion not met

What about `O=C(c1ccccc1)N1C(=O)[C@]2(COC(c3ccc(OCCCO)cc3)=N2)Cc2ccccc21` ?
criterion met

====

Entries and their composite z-score values follow.
# system-name: Neurogenic locus notch homolog protein 2 (Homo sapiens)
# assay-overview: Notch2 binders on small-molecule microarrays, primary screen, biochemical, small-molecule microarray, 635 nm fluorescence, stem cell growth factors (AID 1073)
# experimental-setup: Notch2 binding, higher = more signal
// no unit, no text: just the number

Example compounds with recorded composite z-score:
COCCCNC(=O)[C@@H]1c2ccccc2C(=O)N(Cc2ccccc2Cl)[C@H]1c1ccc(CO)cc1	0.161
C=CCN1C(=O)[C@@]2(Cc3ccccc31)N=C(c1ccc(OCCCO)cc1)O[C@H]2c1ccccc1	1.01
C=CCOC(=O)[C@@H]1[C@H]2C(=O)O[C@H](c3ccccc3)[C@H](c3ccccc3)N2[C@H](c2ccc(OCCOC(=O)[C@@H]3C[C@@H]4C(=O)NCC(=O)N4[C@@H]3c3ccc(O)cc3)cc2)[C@@]12C(=O)Nc1ccc(I)cc12	0.364

Need composite z-score, item `C=CCNC(=O)[C@@H]1[C@H]2C(=O)O[C@H](c3ccccc3)[C@H](c3ccccc3)N2[C@H](c2ccc(O)cc2)[C@@]12C(=O)N(C(=O)OCCOC)c1ccc(C#CCNC(N)=O)cc12`
0.211

Entry to check: O=C1OCCC/C=C\[C@H]2OC34C=CCN(Cc5ccccc5)C(=O)[C@H]3N(CCCO)C(=O)[C@@H]4C12 (stereo partly specified)
-1.15

Next up: `O=C1C[C@@](C(=O)NCCN2CCOCC2)(c2ccc([N+](=O)[O-])cc2)[C@@H](c2ccc(CO)cc2)N1CC12CC3CC(CC(C3)C1)C2`
1.51

Data origin: PubChem BioAssay
